Listed below: pKd values for each entry.
- TARGET_OF_ASSAY: T1, human CCR6 N-terminal extracellular domain Fc fusion protein NthCCR6-IgG4Fc (human, contains a sulfated Tyr residue; N-linked sugar chains)
- T1 construct: Made in CHO/DG44 cells; also called NthCCR6-Fc; NtCCR6-IgG4Fc
- ASSAY_NAME: SPR, Biacore T100; NthCCR6-IgG4Fc captured on anti-human IgG CM5 chip, antibody injected
pKd: −log10 of the molar value.

[
  {
    "BINDER": "anti-human CCR6 mouse monoclonal antibody KM4592 (antibody, V domains shown) VH: DVQLVESGGGLVQPGGSRKLSCAASGFTFSSFGMHWVRQAPEKGLEWVAYISTGSGSIYYADTVKGRFTISRDNPKNTLFLQMTSLRSEDTAIYYCLKGGDGYYVAAWFAYWGQGTLVTVSA VL: DIVLTQAAPSVSVTPGESVSISCRSSKSLLHTNDNTYLYWFLQRPGQSPQLLIYRMSNLASGVPDRFSGSGSGTAFTLRISRVEAEDVGVYYCMQHLEYPLTFGAGTKLELK",
    "pKd": 9.42
  },
  {
    "BINDER": "anti-human CCR6 mouse monoclonal antibody KM4705 (antibody, mouse IgG2b, V domains shown) VH: EVQLVETGGGLVQPKGSLKLSCAASGFSFKTNAMNWVRQAPGKGLEWVARIRSKINNYATYYADSVKDRFTISRDDSQSMLYLQMNNLKTEDTAMYYCVSDHYGYGAVDYWGQGTSVTVSS VL: DIQMNQSPSSLSASLGDTITITCRASQNINIWLSWYQQKPGSIPKLLIYKASNLHTGVSSRFSGSGYGTDFTLTISSLQPEDIATYYCLQGRSYPLTFGGGTNLEIK",
    "pKd": 8.19
  },
  {
    "BINDER": "anti-human CCR6 rat monoclonal antibody KM4704 (antibody, rat IgG2b, V domains shown) VH: EVQLQESGPGLVKPSQSLSLTCSVTGYSITSNYWGWIRKFPGNKMEWMGYTSSSGSTSYNPYLKSRISITRDTSKNQFFLKLNSVTTEDTATYYCTGGYVMDAWGQGASVTVSS VL: DVLMTQTPVSLPVSLGGQVSISCRSSQSLVHSDGNTYLHWYLQKPGQSPQLLIYRVSNRFSGVPDRFSGSGSGTDFTLKISRVEPEDLGVYYCLQRTYVPWTFGGGTKLDLK",
    "pKd": 9.17
  },
  {
    "BINDER": "anti-human CCR6 rat monoclonal antibody KM4703 (antibody, rat IgG2b, V domains shown) VH: QVQMKETGPGLVQPTQTLSLTCTVSGFSLTSSRVHWVRQPPGKGLEWMGVIYYDGKTDYNATLKSRLSISRDTSKSQVFLKINSLQTDDTAMYYCAGGVIMDAWGQGASVTVSP VL: DVLMTQIPVSLPVSLGGQVAISCRSSQSLVHTDGNTYLHWYLQKPGQSPQLLIYRVSNRFSGVPDRFSGSGSGTDFTLKISRVEPEDLGVYYCSQRTYFPLTFGSGTKLEIK",
    "pKd": 8.94
  }
]

Provenance of the data: patent WO2013005649A1
